assay: solvent given as SMILES; conditions: in CCCCCC
Answer each item with its documented emission maximum.
Give bare numbers, in nm.

Example entries begin here.
CCc1ccc(/C=N/c2cc(C(C)C)c(O)cc2C)cc1    402
F[B-]1(F)n2cccc2C=C2c3ccccc3C(c3ccc[nH]3)=[N+]21    588

Moving on to another compound below.
Reported emission maximum, compound CCc1c(C)c2n(c1C)[B-](F)(F)[N+]1=C(NCc3ccc(OC)cc3)C(SC#N)=CC1=C2C : ____
589

---

experiment: solvent given as SMILES; conditions: in CC#N
ASSAY_METRIC: emission maximum (nm)
Answers are plain numbers, in nm.

c1cc2oc3cccc4oc5cccc6oc(c1)c2[c+](c34)c65    524
CSc1ccc(/C=C/c2cnc3ccccc3n2)cc1    499
CC1=[N+]2C(=C(c3ccc(-c4c5ccccc5c(-c5ccccc5)c5ccccc45)cc3)c3ccc(C)n3[B-]2(F)F)C=C1    523
COc1ccc2c(c1)[n+]([O-])nc(N)[n+]2[O-]    510

Could you report emission maximum for every entry in the following list?
1. COc1cc2c(cc1/C=C/C(=C(C#N)C#N)c1ccccc1)c1ccccc1n2C
2. c1ccc(-c2nn(-c3ccccc3)c3nc4ccc(N(c5ccccc5)c5ccccc5)cc4cc23)cc1
3. C(=C\c1ncnc2ccccc12)/c1ccc(N2CCCCC2)cc1
4. COC(=O)CN1C(=O)c2cc3ccc(N(C)C)cc3cc2C1=O

589
570.78
579
549

Could you report emission maximum for every entry in the following list?
1. CCCCCCCCCCCCOc1cc(/C=C/c2ccc3c(c2)C(CC)(CC)c2cc(N4c5ccccc5Sc5ccccc54)ccc2-3)c(OCCCCCCCCCCCC)cc1/C=C/c1ccc2c(c1)C(CC)(CC)c1cc(N3c4ccccc4Sc4ccccc43)ccc1-2
2. CN(C)CCN(Cc1c2ccccc2cc2ccccc12)c1ccc([N+](=O)[O-])cc1[N+](=O)[O-]

[473, 394]

---

test: solvent given as SMILES; conditions: in CC#N
ASSAY_METRIC: emission maximum
Record the result as number plus unit.

Example entries begin here.
CN(C)c1ccc(C#Cc2ncnc3ccccc23)cc1    573 nm
CCOC(=O)c1c2c3c(cccc3c3cc4ccccc4cc13)N(C)C2=O    413 nm

Moving on to another compound below.
Reported emission maximum, compound CC(C)(C)c1ccc(-c2c3ccccc3c3n2[B-](F)(F)[N+]2=Cc4c5ccccc5c(-c5ccc(C(C)(C)C)cc5)n4[B-](F)(F)[N+]2=C3)cc1 : ____
601 nm

---

assay: solvent given as SMILES; details: in C1CCOC1
ASSAY_METRIC: emission maximum (nm)
Answers are plain numbers, in nm.

Example entries begin here.
Cc1cc(C)c([B-]2(c3c(C)cc(C)cc3C)[O+]=P(c3ccccc3)(c3ccccc3)c3cc(C#Cc4ccccc4)sc3-c3sc(C#Cc4ccccc4)cc32)c(C)c1    498
CCCCCCCCC1(CCCCCCCC)c2cc(C#CC#Cc3ccc(N(c4ccccc4)c4ccccc4)cc3)ccc2-c2ccc(C=O)cc21    498

Could you report emission maximum for every entry in the following list?
1. CCC1(CC)c2cc(B(c3c(C)cc(C)cc3C)c3c(C)cc(C)cc3C)ccc2-c2c1c1c(c3c2C(CC)(CC)c2cc(N(c4ccccc4)c4ccccc4)ccc2-3)C(CC)(CC)c2cc(B(c3c(C)cc(C)cc3C)c3c(C)cc(C)cc3C)ccc2-1
2. CCn1c2ccccc2c2cc(C#Cc3cc(C#Cc4ccc5c(c4)c4ccccc4n5CC)nc(C#N)n3)ccc21

[500, 495]
